Answer each item with its documented kon.
target: T1, glutathione S-transferase (UniProt P08515 1-218 = GST); test: SPR, GST immobilised;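 note: nanobody analytes injected as dilution series over three orders of magnitude across antigen on a CM5 chip, kinetics fitted by 1:1 Langmuir model, optionally with mass transfer, duplicate runs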
T1 construct: Expressed in E. coli, purified on GSH resin; also called GST
T1 sequence (P08515 whole entry): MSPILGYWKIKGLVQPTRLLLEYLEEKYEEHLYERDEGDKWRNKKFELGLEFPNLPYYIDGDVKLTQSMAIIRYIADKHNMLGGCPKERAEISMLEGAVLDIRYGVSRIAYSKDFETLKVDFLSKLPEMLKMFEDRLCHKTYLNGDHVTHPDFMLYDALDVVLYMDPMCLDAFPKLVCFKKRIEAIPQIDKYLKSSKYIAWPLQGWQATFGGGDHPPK
Give bare numbers, in M⁻¹ s⁻¹.

State its kon: G22 (VHH) VHH: QVQLVESGGGSVQAGGSLRLSCAASGRTFSSYSMAWFRQAPGKEREFVAVMNCRYGDTDYPDSVKGRFTMSRDNAKNTLYLQMNSLKPEDTAVYYCAAKLIAYCGSGYYYRRNDYGYWGQGTQVTVSS
30900

Give a short answer stating reported kon for G9 (VHH) VHH: DVQLVESGGGLVQPGGSLRLSCAASGLTLDNYDMAWFRQAPGKEREFVTAINYVGGRTYADSVRGRFTISRDDTKNTVYLQMNSLKPEDTAVYYCAAGLQYGITSLRTRNYNYWGQGTQVTVSS .
2e+06

Output measured kon for this item: G7 (VHH) VHH: QVQLVESGGGLVQPGDSLRLSCAVSGQYVNMAAMGWFRQAPGKEREFVAGISWSDDTDIADSVKGRFTISRDHGKNTVDLQMNSLKPEDTGVYLCAGRFRRLAKDFGEYDYWGQGTQVTVSS
3020

Please examine the following record next.
Dear colleague, please send me the reported kon for G13 (VHH, also called G13(C3)) VHH: DVQLVESGGGVVQAGGSLRLSCAASGRTFSDYAMGWFRQAPGKEREFVAGVSWSGVDTYYADSVKGRFTISRDNAKNTLYVQMNSLKPEDTAVYYCAAQRYYHGHAKNMRYDYWGQGTQVTVSS when you can.
474000
